Reference source: paper PMC12168616

System: A. Baumannii AB5075
Format: cell-based, Acinetobacter baumannii
Conditions: AB5075
Ends that are not written are not given here.
// returns false unless MIC A. Baumannii AB5075 is strictly below 100 µM, in which case true

Query: Does KFITKFVKGLGLGTL-NH2 [MLWH 23] have MIC A. Baumannii AB5075 strictly under 100 µM?
Response: true

Query: # TODO verify MIC A. Baumannii AB5075 < 100 µM strictly for this substance: IKVILKLVTNKGNGI-NH2 [MLWH 21]
Response: true

Query: Would you kindly verify if MIC A. Baumannii AB5075 of KHVFAFLGGKLVKLK-NH2 [MLWH 35] is strictly less than 100 µM?
Response: true

Query: State whether 100 µM exceeds MIC A. Baumannii AB5075 recorded for VHKAFRKGSGAAILW-NH2 [MLWH 27] .
Response: false

Query: Input LLGFTAFIKGQIKTA-NH2 [MLWH09] ; condition: MIC A. Baumannii AB5075 strictly below 100 µM. Does it hold?
Response: false

Query: Is 100 µM strictly greater than the substance's reported MIC A. Baumannii AB5075? substance: GLWKIKLAFGKMFAK-NH2 [MLWH05]
Response: true

Query: Hello, I'm reviewing records and need to know if MIC A. Baumannii AB5075 of KGFAKMFRLLKKLAR-NH2 [MLWH 32] is below 100 µM. Could you check?
Response: true

Query: For TLVKAVAHIAKLLKF-NH2 [MLWH 22] , is the recorded MIC A. Baumannii AB5075 below the cut-off of 100 µM?
Response: true

Query: Does GLLTTGKKKLLGIIA-NH2 [MLWH 26] have MIC A. Baumannii AB5075 strictly under 100 µM?
Response: false

Query: is_below(MIC A. Baumannii AB5075, 100 µM) for GGAFFKLTQKIIKKA-NH2 [MLWH07] ?
Response: true

Query: For this substance, is MIC A. Baumannii AB5075 lower than 100 µM? TKFGQKVIKLIAQFL-NH2 [MLWH 24]
Response: true

Query: # strict comparison: is reported MIC A. Baumannii AB5075 < 100 µM? input = FVTITLKNFAKKKVG-NH2 [MLWH 28]
Response: false

Query: Does the reported MIC A. Baumannii AB5075 of the following substance sit strictly below 100 µM? WFKAIAIGLGKFIAK-NH2 [MLWH 14]
Response: true

Query: Does the reported MIC A. Baumannii AB5075 of the following substance sit strictly below 100 µM? AWLKFKKKFGLFAKI-NH2 [MLWH11]
Response: true

Query: Here's an entry: GKIFGKLFLALIKMW-NH2 [MLWH06] . Is its MIC A. Baumannii AB5075 below 100 µM?
Response: true

Query: Does this substance meet the criterion MIC A. Baumannii AB5075 < 100 µM? GPLMGAFIKKLLPKF-NH2 [MLWH 48]
Response: true

Query: In plain terms, does FLPLIILKFIGKLLP-NH2 [MLWH 19] come in under 100 µM for MIC A. Baumannii AB5075?
Response: false

Query: Determine if KLKGLIFAWFKGIIA-NH2 [MLWH 45] shows MIC A. Baumannii AB5075 strictly lower than 100 µM.
Response: true
